The entries below are paired with their reported IC50.
test system: HCT-116; assay: Cytotoxicity against human HCT-116 cells assessed as reduction in cell viability by MTT assay; assay type: functional, cell-based
Counter-ions that a name gives are not always drawn.
# value in µM; strip the unit string

CC1=C[C@@H]2/C=C/C[C@H](C)CC(=O)/C=C\C(=O)[C@]23C(=O)N[C@@H](Cc2c[nH]c4ccccc24)[C@@H]3[C@@H]1C    10.6

Exercise: Consider the compound `CO[C@@H]1/C=C\[C@@H](C)C/C=C/[C@H]2[C@H](O)C(C)=C(C)[C@H]3[C@H](Cc4c[nH]c5ccccc45)NC(=O)[C@@]23C(=O)C1` and give its measured IC50.
Key: 26.1

Exercise: Consider the compound `CC1=C[C@@H]2/C=C/C[C@H](C)CC/C=C\C(=O)[C@]23C(=O)N[C@@H](Cc2c[nH]c4ccccc24)[C@@H]3[C@@H]1C` and give its measured IC50.
Key: 8

Exercise: Consider the compound COc1cccc2c1C(=O)c1c(O)c3c(c(O)c1C2=O)C[C@@](O)(C(=O)CO)C[C@@H]3O[C@H]1C[C@H](N)[C@H](O)[C@H](C)O1 [DOXORUBICIN HYDROCHLORIDE] and give its measured IC50.
Key: 2.9

Exercise: Consider the compound `CC1=C(C)[C@H]2[C@H](Cc3c[nH]c4ccccc34)NC(=O)[C@]23C(=O)/C=C\CC[C@@H](C)C/C=C/[C@H]3[C@@H]1O` and give its measured IC50.
Key: 11.2

Exercise: Consider the compound `CC1=C[C@@H]2/C=C/C[C@H](C)CCCCC(=O)[C@]23C(=O)N[C@@H](Cc2c[nH]c4ccccc24)[C@@H]3[C@@H]1C` and give its measured IC50.
Key: 38.5

Exercise: Consider the compound `C=C1[C@@H](C)[C@H]2[C@H](Cc3c[nH]c4ccccc34)NC(=O)[C@]23C(=O)CCCC[C@@H](C)C/C=C/[C@H]3[C@@H]1O` and give its measured IC50.
Key: 45.3

----------
The entries below are paired with their reported IC50.
system: A549; test: Cytotoxicity against human A549 cells assessed as reduction in cell viability by MTT assay; assay type: functional, cell-based
# value in µM; strip the unit string

CO[C@@H]1/C=C\[C@@H](C)C/C=C/[C@H]2[C@H](O)C(C)=C(C)[C@H]3[C@H](Cc4c[nH]c5ccccc45)NC(=O)[C@@]23C(=O)C1    21.5
CC1=C[C@@H]2/C=C/C[C@H](C)CC(=O)/C=C\C(=O)[C@]23C(=O)N[C@@H](Cc2c[nH]c4ccccc24)[C@@H]3[C@@H]1C    7.9
CC1=C[C@@H]2/C=C/C[C@H](C)CC(=O)[C@@H]3O[C@H]3C(=O)[C@]23C(=O)N[C@@H](Cc2c[nH]c4ccccc24)[C@@H]3[C@@H]1C    44
CC1=C[C@@H]2/C=C/C[C@H](C)CC(=O)/C=C/C(=O)[C@]23C(=O)N[C@@H](Cc2c[nH]c4ccccc24)[C@@H]3[C@@H]1C    9.5

Exercise: Consider the compound `C=C1[C@@H](C)[C@H]2[C@H](Cc3c[nH]c4ccccc34)NC(=O)[C@]23C(=O)CCCC[C@@H](C)C/C=C/[C@H]3[C@@H]1O` and give its measured IC50.
Key: 40.4
